tested on: HOP-92 NSCLC; assay: NCI tumour cell line growth inhibition, 48 h
Endpoint Name: TGI

Molecule	Recorded Result
O=C(c1ccccn1)c1nnn2ccccc12	> 100 µM
COc1ccc(-n2nnc3c(C#N)c(-c4ccccc4)c(C)n3c2=O)cc1	> 100 µM
CCCN(CCC)c1ccc(C=O)cc1	66.2 µM
O=C(O)CN1CCNCCN(CC(=O)O)CCNCC1	> 100 µM
COc1ccc2nc3cccc([N+](=O)[O-])c3c(NCCN(CCO)CCO)c2c1	0.0829 µM
CCCCC(NC(=O)CC)C(=O)O (stereo unspecified)	> 100 µM

----------
system: ACHN renal; assay: NCI tumour cell line growth inhibition, 48 h
Endpoint Name: TGI

Molecule	Endpoint Name	Recorded Result
COc1ccc(N2C(=O)C3c4[nH]c5ccccc5c4C4CCCCCCCC4C3C2=O)cc1 (stereo unspecified)	TGI	> 10 µM
Fc1ccc(CNc2c3ccccc3nc3ccccc23)cc1	TGI	5.64 µM
COCC1C(=O)c2cc3c(cc2C12C=CC1(C=C2)OCCO1)OCO3 (stereo unspecified)	TGI	25.3 µM
Nc1ccn([C@H]2CO[C@@H](CO)O2)c(=O)n1	TGI	7.87 µM
O=C1Nc2ccccc2C1(c1ccc(O)c(F)c1)c1ccc(O)c(F)c1	TGI	> 84 µM
O=C(Nc1ncc(Cc2ccccc2)s1)c1ccc2c(c1)OCCO2	TGI	> 100 µM

----------
system: LOX IMVI melanoma; experiment: NCI tumour cell line growth inhibition, 48 h
Measured TGI accompanies every entry in the list below.
Endpoint Name: TGI

Molecule	Recorded Result
O=C1ON(Cc2ccccc2)C(c2ccccc2)N1c1ccccc1 (stereo not given)	> 100 µM
CC(=O)c1c2c(cc3c1CC1(Cc4cc5c(cc4C1=O)CCC5)C3)CCC2 (stereo not given)	> 100 µM
CN(C)CCSC(=Nc1ccccc1)N1C=COC=C1	31.8 µM
Cc1cc2c(cc1C)N1Cc3c(ccc(C)c3C)N(C2)C1 (tested in a mixture with another compound)	> 100 µM
CCOC(=O)N1CC2(C(=O)OC)C=CC1C(C(=O)OC)C2 (stereo not given)	> 100 µM
O=c1c2cc(Br)ccc2[nH]c(=S)n1-c1ccc(Br)cc1	> 100 µM
C/C(O)=C(/C=N\C(=S)Nc1ccc(Cl)c(Cl)c1)C(=O)Nc1ccccc1C	> 100 µM
CSC(=S)N/N=C/c1ccccc1	> 100 µM
CC1=NN(c2nc(N)nc(C(C)Sc3cc(Cl)c(C)cc3S(N)(=O)=O)n2)C(C)(C)C1 (stereo not given)	> 10 µM
O=C(c1ccccc1)c1ccc(Cl)c([N+](=O)[O-])c1	6.11 µM

----------
Listing of recorded TGI by entry.
test system: HT29 colon; test: NCI tumour cell line growth inhibition, 48 h
Endpoint Name: TGI

Compound	Recorded Result
[N-]=[N+]=Nc1ccccc1-[n+]1noc([O-])c1Br	> 100 µM
COc1ccc(-c2cn(-c3ccc(Cl)cc3)c(=S)[nH]2)cc1OC	> 100 µM
O=C1OC(c2ccccc2)C2CC3CC4(CCC3CN12)OCCO4 (stereo not given)	> 100 µM
Nc1ncnc2c1ncn2[C@@H]1C[C@H]1CO	> 100 µM
Fc1ccc(-c2ncn(C3CCNCC3)c2-c2ccnc(Oc3ccccc3)n2)cc1	> 25 µM
COc1ccc(NC(=O)CC/C(CC(=O)c2ccccc2Cl)=N\Nc2nnc(C)n2N)cc1	> 100 µM
CC1(C)N(OC2CCCCO2)C(c2ccccc2)C(c2ccccc2)=[N+]1[O-] (stereo not given)	> 100 µM
CC(C)c1ccc2c(N=Nc3ccc(S(N)(=O)=O)cc3)c(O)[nH]c2c1	> 25 µM
COc1ccc(C(=O)C(c2ccc(OC)cc2)C2C(=O)Oc3ccccc32)cc1 (stereo not given)	> 100 µM
COc1ccc(N2C(=O)CSC2c2cc3cc(Br)ccc3nc2Cl)cc1 (stereo not given)	> 50 µM
Oc1ccc2ccccc2c1-c1c(Nc2ccccc2)ccc2ccccc12	> 53.5 µM
Cc1ccc(S(=O)(=O)NC(=O)C2(Br)S(=O)(=O)OCCOS2(=O)=O)cc1	> 100 µM
C/C(O)=C(/C=N\C(=S)Nc1ccc(Cl)c(Cl)c1)C(=O)Nc1ccccc1C	87.1 µM
O=C1ON(Cc2ccccc2)C(c2ccccc2)N1c1ccccc1 (stereo not given)	> 100 µM
COc1ccc2c(c1)CCc1cnn(C3OC(COC(C)=O)C(OC(C)=O)C(OC(C)=O)C3OC(C)=O)c1-2 (stereo not given)	> 100 µM
CC(C)=CCC/C(C)=C/CC/C(C)=C/CC/C=C(\C)CC/C=C(\C)CCC1SC1(C)C (stereo not given)	> 100 µM
O=C(Nc1ccc(Cl)c(Cl)c1)C(=O)C(C1OC(=O)c2ccccc21)[N+](=O)[O-] (stereo not given)	> 100 µM
C=C1C(=O)O[C@H]2[C@H]1CC/C(C=Nc1ccc(C(F)(F)F)cc1N)=C\CC[C@@]1(C)O[C@@H]21	8.6 µM
O/N=C(\C=N\O)c1ccc2c(c1)Sc1ccccc1O2	49.7 µM
COc1ccc(CN2C(=O)C(Cc3cc(OC)c(OC)c(C)c3OC)N(C(=O)OC(C)C)C(=O)/C2=C/c2cc(OC)c(OC)c(C)c2OC)cc1 (stereo not given)	> 100 µM

----------
tested on: NCI/ADR-RES ovarian; experiment: NCI tumour cell line growth inhibition, 48 h
Endpoint Name: TGI

Compound	Test Target	Recorded Result
CC(=O)Nc1ccc2c3c(cc(O)c2c1)N(C(=O)CCCC(=O)Nc1ccc2c4c(cc(O)c2c1)N(C(=O)OC(C)(C)C)CC4CCl)CC3CCl (configuration not stated)	NCI/ADR-RES ovarian	> 50 µM
CCOC(=O)c1c[nH]c2c(OCc3ccccc3)c3ccccc3c(O)c2c1=O	NCI/ADR-RES ovarian	> 64.7 µM
CCCN(CCC)c1ccc(C=O)cc1	NCI/ADR-RES ovarian	> 100 µM
O=C(O)CN(CC(=O)O)Cc1cc2c(cc1O)Oc1cc(O)c(CN(CC(=O)O)CC(=O)O)cc1C21OC(=O)c2ccccc21	NCI/ADR-RES ovarian	> 100 µM
CSc1c(CC(=O)O)n(Cc2ccccc2)c2ccccc12	NCI/ADR-RES ovarian	> 100 µM
C/C(=N\Nc1nc2ccccc2[nH]1)c1ccncn1	NCI/ADR-RES ovarian	4.54 µM
COc1c(C(=O)/C(=N/Nc2ccccc2)C(C)=O)c(O)c(OC)c2occc12	NCI/ADR-RES ovarian	> 100 µM
CCOC(=O)C1=C(N)Oc2c(sc3c(C)cccc23)C1c1ccc(Cl)cc1 (configuration not stated)	NCI/ADR-RES ovarian	7.18 µM
CC(=O)O[C@H]1C(=O)[C@@]2(C)[C@H]([C@H](OC(=O)c3ccccc3)[C@]3(O)C[C@H](OC(=O)[C@H](O)[C@@H](NC(=O)c4ccccc4)C4CCCCC4)C(C)=C1C3(C)C)[C@]1(OC(C)=O)CO[C@@H]1C[C@@H]2O	NCI/ADR-RES ovarian	11.4 µM
CC(C)c1ccc2c(N=Nc3ccc(S(N)(=O)=O)cc3)c(O)[nH]c2c1	NCI/ADR-RES ovarian	> 25 µM
O=C(O)c1cc(N/C=C2\C(=O)c3ccccc3OC2O)ccc1O (configuration not stated)	NCI/ADR-RES ovarian	82.8 µg/mL
O=C(CSc1nc2ccc([N+](=O)[O-])cc2[nH]1)Nc1cccc(Cl)c1	NCI/ADR-RES ovarian	9.13 µM

----------
tested on: SK-OV-3 ovarian; test: NCI tumour cell line growth inhibition, 48 h
Entries annotated with measured TGI
Endpoint Name: TGI

Molecule	Test Target	Endpoint Name	Recorded Result
NC(=O)Cc1ncn(-c2ccccc2)n1	SK-OV-3 ovarian	TGI	> 100 µM
COC(=O)NNc1c([N+](=O)[O-])cnn(-c2ccccc2)c1=O	SK-OV-3 ovarian	TGI	17 µM
COc1ccc(S(=O)(=O)N2CCN(C(=O)OCc3ccccc3)CC2C(=O)NO)cc1 (stereo unspecified)	SK-OV-3 ovarian	TGI	> 25 µM
O=c1oc2c3ccc4ccccc4c3n(CCN3CCOCC3)c2c2ccccc12	SK-OV-3 ovarian	TGI	> 100 µM
C=CC1(c2ccc3ccccc3c2)OCC(CC)(CC)CO1	SK-OV-3 ovarian	TGI	> 100 µM
COc1ccc(CN2C(=O)C(Cc3cc(OC)c(OC)c(C)c3OC)N(C(=O)OC(C)C)C(=O)/C2=C/c2cc(OC)c(OC)c(C)c2OC)cc1 (stereo unspecified)	SK-OV-3 ovarian	TGI	> 100 µM
COc1ccc(Nc2c3c4c(cccc4[nH]c2=O)C(=O)c2ccccc2-3)cc1	SK-OV-3 ovarian	TGI	> 56.3 µM
CCCN(CCC)c1ccc(C=O)cc1	SK-OV-3 ovarian	TGI	> 100 µM
CC1C(=O)C(C)C(c2cccs2)N(N=O)C1c1cccs1 (stereo unspecified)	SK-OV-3 ovarian	TGI	> 100 µM
CC(Oc1ccccc1)C(=O)NN (stereo unspecified)	SK-OV-3 ovarian	TGI	> 100 µM
CCOC(=O)C1c2[nH]c3ccccc3c2CCN1C(=O)c1ccco1 (stereo unspecified)	SK-OV-3 ovarian	TGI	> 10 µM
